Source: patent US8716530B2

# System: human erythrocytes
# Procedure Summary: Hemolysis of human erythrocytes (HC50)
# Applied Conditions: human erythrocytes, one hour incubation; 50% hemoglobin release; Table 1
Observation Type: Hemolysis HC50 (µg/mL)

smiles=N=C(N)NCCc1cc(Br)cc(C#Cc2cccc(C#Cc3cc(Br)cc(CCNC(=N)N)c3)c2)c1 observation_type="Hemolysis HC50" qualifier_operator== number=8
smiles=CCCCCOc1c(I)cc(CN)cc1C#Cc1cccc(C#Cc2cc(CN)cc(I)c2OCCCCC)c1 observation_type="Hemolysis HC50" qualifier_operator=< number=12.5
smiles=NCCNC(=O)c1cc(Br)cc(C#Cc2cccc(C#Cc3cc(Br)cc(C(=O)NCCN)c3)c2)c1 observation_type="Hemolysis HC50" qualifier_operator== number=12.5
smiles=CCCCCOc1c(I)cc(CNC(=N)N)cc1C#Cc1cccc(C#Cc2cc(CNC(=N)N)cc(I)c2OCCCCC)c1 observation_type="Hemolysis HC50" qualifier_operator== number=5
smiles=NCCc1cc(Br)cc(C#Cc2cccc(C#Cc3cc(Br)cc(CCN)c3)c2)c1 observation_type="Hemolysis HC50" qualifier_operator== number=75
